Source: ChEMBL document CHEMBL1800057

Species: Homo sapiens
Assay: Ratio of IC50 for human nNOS to EC50 for human iNOS
Measurement Name: Ratio EC50

Problem: Please look up its Ratio EC50: O=c1cc(Cn2c(C3CCCCC3)nc3ccccc32)c2ccc(F)c(F)c2[nH]1
Result: 0.6

Problem: What about Cn1cncc1-c1nc2ccccc2n1Cc1cc(=O)[nH]c2c(F)c(F)ccc12 ?
Result: 5.3

Problem: What about O=c1cc(Cn2c(C3CCC3)nc3ccccc32)c2ccc(F)c(F)c2[nH]1 ?
Result: 1.2

Problem: What about O=c1cc(Cn2c(C3CC(F)(F)C3)nc3nccnc32)c2cccc(F)c2[nH]1 ?
Result: 14

Problem: What about Cc1ncsc1-c1nc2ccccc2n1Cc1cc(=O)[nH]c2c(F)c(F)ccc12 ?
Result: 0.8

Problem: What about CC(C)(C)c1nc2ccccc2n1Cc1cc(=O)[nH]c2c(F)c(F)ccc12 ?
Result: > 2

Problem: What about CC(C)Cc1nc2ccccc2n1Cc1cc(=O)[nH]c2c(F)c(F)ccc12 ?
Result: 1.8

Problem: What about Cc1ncsc1C(=O)N(Cc1cc(=O)[nH]c2c(F)cccc12)c1ccccc1 ?
Result: > 50

Problem: What about O=c1cc(Cn2c(-c3ccccn3)nc3ccccc32)c2ccc(F)c(F)c2[nH]1 ?
Result: > 0.5

Problem: What about CC(C)c1nc2nccnc2n1Cc1cc(=O)[nH]c2c(F)c(F)ccc12 ?
Result: 0.7
